Below, each entry is listed alongside its reported z.score.t.
# Test system: hPSC-SCs
Counter-ions that a name gives are not always drawn.

COMPOUND: C[C@]12N[C@H](Cc3ccccc31)c1ccccc12 [Dizocilpine maleate]
z.score.t: −0.1538
--
COMPOUND: Cc1cc(C(C)(C)CC(C)(C)C)ccc1OCCOCC[N+](C)(C)Cc1ccccc1.[Cl-] [Methyl benzethonium chloride]
z.score.t: −1.169
--
COMPOUND: COc1cc2c3cc1Oc1cc(ccc1O)C[C@@H]1c4c(cc(OC)c(O)c4Oc4ccc(cc4)C[C@@H]3N(C)CC2)CC[N+]1(C)C.Cl.O.O.O.O.O.[Cl-] [Tubocurarine chloride pentahydrate (+)]
z.score.t: −1.166
--
COMPOUND: COC(=O)C1=CCCN(C)C1 [Arecoline hydrobromide]
z.score.t: −0.7049
--
COMPOUND: CCC1(c2ccc(N)cc2)CCC(=O)NC1=O (stereo not shown) [Glutethimide, para-amino]
z.score.t: 0.1149
--
COMPOUND: c1ccc2c(c1)CCCc1cc(NCCN3CCOCC3)nnc1-2 [SR-95639A]
z.score.t: −0.4139
--
COMPOUND: COc1ccc2c(c1OC)CN1CCc3cc4c(cc3C1C2)OCO4 (stereo not shown) [(d,l)-Tetrahydroberberine]
z.score.t: 2.041
--
COMPOUND: CC(N)C(O)c1ccccc1 (stereo not shown) [Phenylpropanolamine hydrochloride]
z.score.t: −0.8304
--
COMPOUND: Cc1cccc(C)c1N=C1NCCCS1 [Xylazine]
z.score.t: 1.75
--
COMPOUND: CCN(CC)CCOC(=O)C1(c2ccc([N+](=O)[O-])cc2)CCCC1.Cl [Nitrocaramiphen hydrochloride]
z.score.t: 1.242
--
COMPOUND: C=C(NC(=O)C(=C)NC(=O)c1csc(C2=N[C@@H]3c4csc(n4)[C@H]4NC(=O)c5csc(n5)[C@H]([C@](C)(O)[C@@H](C)O)NC(=O)[C@H]5CSC(=N5)/C(=C/C)NC(=O)[C@H]([C@@H](C)O)NC(=O)c5csc(n5)[C@]3(CC2)NC(=O)[C@H](C)NC(=O)C(=C)NC(=O)[C@H](C)NC(=O)[C@H]([C@@H](C)CC)N[C@@H]2C=Cc3c([C@H](C)O)cc(nc3[C@H]2O)C(=O)O[C@@H]4C)n1)C(N)=O [Thiostrepton]
z.score.t: 0.6013
--
COMPOUND: CC(=O)N(CC(O)CN(C(C)=O)c1c(I)c(C(=O)NCC(O)CO)c(I)c(C(=O)NCC(O)CO)c1I)c1c(I)c(C(=O)NCC(O)CO)c(I)c(C(=O)NCC(O)CO)c1I (stereo not shown) [Iodixanol]
z.score.t: 0.7539
--
COMPOUND: CN1CCC2=C[C@H](O)[C@H]3OC(=O)c4cc5c(cc4[C@H]3[C@@H]21)OCO5 [Hippeastrine hydrobromide]
z.score.t: 1.178

---

# Test system: hPSC-SCs
Below, each entry is listed alongside its reported z.score.t.

COMPOUND: C[C@]12CC[C@H]3[C@@H](CCC4=CC(=O)CC[C@@]43C)[C@@H]1CC[C@@H]2C(=O)CO
z.score.t: −1.303
//
COMPOUND: C[N+]1(C)CCOC(O)(c2ccc(-c3ccc(C4(O)C[N+](C)(C)CCO4)cc3)cc2)C1.[Br-].[Br-] (stereo not shown) [Hemicholinium bromide]
z.score.t: −0.07901
//
COMPOUND: COc1cc2c(c(OC)c1OC)-c1ccc(OC)c(=O)cc1[C@@H](NC(C)=O)CC2
z.score.t: −1.804
//
COMPOUND: CCC1=C[C@@H]2CN3CCc4c([nH]c5ccccc45)[C@@](C(=O)OC)(C2)[C@@H]13
z.score.t: 0.2625
//
COMPOUND: CCN1C[C@]2(COC)CC[C@H](O)[C@@]34C5C[C@@H]6[C@@H](OC)C[C@](O)(C(CC23)C14)C5[C@H]6OC(C)=O (stereo partly shown)
z.score.t: 2.361
//
COMPOUND: Nc1c2c(nc3ccccc13)CCCC2O.O=C(O)/C=C\C(=O)O (racemic) [Hydroxytacrine maleate (R,S)]
z.score.t: 0.713
//
COMPOUND: CCN(CC)CC(=O)Nc1c(C)cccc1C.Cl [LidocaÂ<ne hydrochloride]
z.score.t: −0.01953

---

# Test system: hPSC-SCs
Structures can show the parent of a compound that is named as a salt.

COMPOUND: CC[C@H](C)[C@H]1O[C@]2(CC[C@@H]1C)C[C@@H]1C[C@@H](C/C=C(\C)[C@@H](O[C@H]3C[C@H](OC)[C@@H](O[C@H]4C[C@H](OC)[C@@H](O)[C@H](C)O4)[C@H](C)O3)[C@@H](C)/C=C/C=C3\CO[C@@H]4[C@H](O)C(C)=C[C@@H](C(=O)O1)[C@]34O)O2
z.score.t: −1.866

COMPOUND: C[C@]12CCC(=O)C=C1CC[C@@H]1[C@@H]2C(=O)C[C@]2(C)C(=O)CC[C@@H]12
z.score.t: 1.101

COMPOUND: CCC1(CC)C(=O)C=CNC1=O
z.score.t: 0.7158

COMPOUND: CC(=C(CCO)SSCC1CCCO1)N(C=O)Cc1cnc(C)nc1N (stereo in doubt) [Fursultiamine Hydrochloride]
z.score.t: 1.483

COMPOUND: CC=CC(=O)N(CC)c1ccccc1C
z.score.t: −1.426

COMPOUND: CN1[C@@H]2CCC[C@H]1CC(=O)C2.Cl [Pseudopelletierine hydrochloride]
z.score.t: −0.6864

COMPOUND: C[C@]12CC[C@H]3[C@@H](CC[C@]4(O)C[C@@H](O)CC[C@]34C=O)[C@@]1(O)CC[C@@H]2C1=CC(=O)OC1
z.score.t: −2.4

COMPOUND: CC[C@H]1[C@@H]2C[C@H]3[C@@H]4N(C)c5ccccc5[C@]45C[C@@H]([C@H]2[C@H]5O)N3[C@@H]1O
z.score.t: 0.1767

COMPOUND: CNCCC(Oc1ccccc1OC)c1ccccc1 (stereo not drawn) [Nisoxetine hydrochloride]
z.score.t: 0.4318

COMPOUND: CN(CCCCCCCCCCN(C)C(=O)Oc1cccc([N+](C)(C)C)c1)C(=O)Oc1cccc([N+](C)(C)C)c1 [Demecarium bromide]
z.score.t: 1.211

COMPOUND: CN1CCC2(C)c3cc(O)ccc3N(C)C12.O=C(O)/C=C/C(=O)O (single isomer, unassigned; (-)) [(−)-Eseroline fumarate salt]
z.score.t: −1.336

COMPOUND: C[C@@H]1C(=O)O[C@H]2C[C@@]34[C@H]5C[C@@H](C(C)(C)C)[C@]36[C@@H](OC(=O)[C@@H]6O)O[C@@]4(C(=O)O5)[C@]21O [Ginkgolide A]
z.score.t: 1.034

COMPOUND: COc1ccccc1N1CCN(CCCCNC(=O)c2ccc3ccccc3c2)CC1.Cl.Cl
z.score.t: −0.4139

COMPOUND: CCCSc1ccc2nc(NC(=O)OC)[nH]c2c1
z.score.t: −1.079

COMPOUND: CC(Cc1ccc(O)cc1)NCC(O)c1cc(O)cc(O)c1 (stereo not drawn) [Fenoterol hydrobromide]
z.score.t: 0.8992

---

# Tested on: hPSC-SCs
Counter-ions that a name gives are not always drawn.

MOLECULE: CN1[C@@H](CC(=O)c2ccccc2)CCC[C@H]1C[C@H](O)c1ccccc1.Cl [Lobeline alpha (−) hydrochoride]
STUDY SYSTEM: hPSC-SCs
z.score.t: −0.2904
--
MOLECULE: C#C[C@]1(O)CC[C@H]2[C@@H]3CCC4=CC(=O)CC[C@]4(C)[C@H]3CC[C@@]21C
STUDY SYSTEM: hPSC-SCs
z.score.t: 0.2916
--
MOLECULE: C[C@]12CC[C@H](O)C[C@H]1CC[C@@H]1[C@@H]2CC[C@]2(C)[C@@H](C3=CC(=O)OC3)CC[C@]12O
STUDY SYSTEM: hPSC-SCs
z.score.t: −2.008
--
MOLECULE: CC(=O)OCC(=O)[C@H]1CC[C@H]2[C@@H]3CC[C@H]4C[C@H](O)CC[C@]4(C)[C@H]3C(=O)C[C@]12C [Alfadolone acetate]
STUDY SYSTEM: hPSC-SCs
z.score.t: 0.3651
--
MOLECULE: CCC1(c2cccc(O)c2)CCCCN(C)C1 (stereo not drawn) [Meptazinol hydrochloride]
STUDY SYSTEM: hPSC-SCs
z.score.t: 0.01078
--
MOLECULE: Cc1ccsc1/C=C/C1=NCCCN1C [Morantel tartrate]
STUDY SYSTEM: hPSC-SCs
z.score.t: −0.06439
--
MOLECULE: CN1[C@@H]2CC[C@H]1C[C@@H](OC(=O)C(CO)c1ccccc1)C2 (stereo partly drawn) [Atropine sulfate monohydrate]
STUDY SYSTEM: hPSC-SCs
z.score.t: −0.9654
--
MOLECULE: Br.C[N+]1([O-])[C@@H]2CC(OC(=O)[C@H](CO)c3ccccc3)C[C@H]1[C@@H]1O[C@@H]12 (stereo partly drawn) [Scopolamin-N-oxide hydrobromide]
STUDY SYSTEM: hPSC-SCs
z.score.t: −0.1983
--
MOLECULE: C=CC[N@@+]12CC[C@@]34c5ccccc5N5/C=C6/[C@H]7C[C@H]8[C@@]9(CC[N@@+]8(CC=C)C/C7=C/CO)c7ccccc7N(/C=C(/[C@@H](C[C@@H]31)/C(=C\CO)C2)[C@H]54)[C@@H]69.[Cl-].[Cl-] [Alcuronium chloride]
STUDY SYSTEM: hPSC-SCs
z.score.t: −0.8925
--
MOLECULE: NCCCCCC(=O)O
STUDY SYSTEM: hPSC-SCs
z.score.t: −0.4749
--
MOLECULE: COc1cc2cc3c4cc(OC)c(OC)cc4cc[n+]3c(C)c2cc1OC.O.[Cl-] [Coralyne chloride hydrate]
STUDY SYSTEM: hPSC-SCs
z.score.t: −1.014
--
MOLECULE: CN1C(=O)CCS(=O)(=O)C1c1ccc(Cl)cc1 (stereo not drawn)
STUDY SYSTEM: hPSC-SCs
z.score.t: −0.5532
--
MOLECULE: O=c1ccc2cc(O[C@@H]3O[C@H](CO)[C@@H](O)[C@H](O)[C@H]3O)c(O)cc2o1 [Esculin Hydrate]
STUDY SYSTEM: hPSC-SCs
z.score.t: 1.053
--
MOLECULE: CC(=O)O[C@H]1CC[C@@]2(C)C(=CC[C@@H]3[C@@H]2CC[C@]2(C)C(=O)CC[C@@H]32)C1 [Dehydroisoandosterone 3-acetate]
STUDY SYSTEM: hPSC-SCs
z.score.t: 0.7349
--
MOLECULE: COc1ccn(C)c(=O)c1C#N
STUDY SYSTEM: hPSC-SCs
z.score.t: 0.8646
